Numbers sourced from paper PMC4585840.

- test system: RCasp3 (Homo sapiens, UniProt P42574)
- Sequence (P42574 29-175 limits assumed): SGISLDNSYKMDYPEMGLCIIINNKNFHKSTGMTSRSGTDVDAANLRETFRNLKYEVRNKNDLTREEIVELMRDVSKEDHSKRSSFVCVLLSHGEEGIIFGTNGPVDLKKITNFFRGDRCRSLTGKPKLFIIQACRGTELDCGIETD
- Sequence (P42574 176-277 limits assumed): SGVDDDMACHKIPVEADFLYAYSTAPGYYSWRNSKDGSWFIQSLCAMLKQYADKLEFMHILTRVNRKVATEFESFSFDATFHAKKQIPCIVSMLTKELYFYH
pIC50: −log10 of the molar value.
assay readout: pIC50

1. CN(C)c1ccc2nc3ccc(=[N+](C)C)cc-3sc2c1 [methylene blue] :: 4.85
